Catalogue of koff readings, one per entry.
target: T1, CEA-derived … (SEQ ID NO: 71)-HLA-A*0201 complex (biotin on the C-terminal biotinylation tag (enzymatic, BirA)); test: Biacore SPR, pMHC immobilised
T1 construct: also called soluble biotinylated HLA-A2-peptide complex; not shown: C-terminal biotinylation tag that replaces the transmembrane and cytoplasmic domains

Here is how some binders turned out for koff.
Noted for SEQ ID NO 34 (receptor) MAGHLPKPTLWAEPGSVITQGSPVTLRCQGGQETQEYRLYREKKTAPWITRIPQELVKKGQFPIPSITWEHAGRYRCYYGSDTSQWSASSDPLELVVTGVYIKPTLSAQPSPVVNSGGNVTLQCDSQVAFDGFILCKEGEDEHPQCLNSQPHARGSSRAIFSVGPVSPSRRWWYRCYAYMNWAPYEWSLPSDLLELDVDG : its koff reads ≤ 2 s⁻¹

Record SEQ ID NO 61 (receptor) MGHLPKPTLWAEPGSVITMDQPVTLRCQGGQETQEYRLYREKKTAPWITRIPQELVKKGQFPIPSITWEHAGRYRCYYGSDTSQWSASSDPLELVVTGVYIKPTLSAQPSPVVNSGGNVTLQCDSPWVADGFILCKEGEDEHPQCLNSQPHARGSSRAIFSVGPVSPSRRWWYRCYAYMSWSPYEWSLPSDLLELDVDG . Reported koff: ≤ 2 s⁻¹

Just so you know, measured koff for SEQ ID NO 7 (receptor) MAGHLPKPTLWAEPGSVITMDQPVTLRCQGGQETQEYRLYREKKTAPWITRIPQELVKKGQFPIPSITWEHAGRYRCYYGSDTSQWSASSDPLELVVTGVYIKPTLSAQPSPVVNSGGNVTLQCDSQVAFDGFILCKEGEDEHPQCLNSQPHARGSSRAIFSVGPVSPSRRWWYRCYAYPIWTPYEWSLPSDLLELDVDG came out at ≤ 2 s⁻¹

Recorded koff (binder SEQ ID NO 40 (receptor) MAGHLPKPTLWAEPGSVITQGSPVTLRCQGGQETQEYRLYREKKTAPWITRIPQELVKKGQFPIPSITWEHAGRYRCYYGSDTSQWSASSDPLELVVTGVYIKPTLSAQPSPVVNSGGNVTLQCDSQVAFDGFILCKEGEDEHPQCLNSQPHARGSSRAIFSVGPVSPSRRWWYRCYAYMSWSPYEWSLPSDLLELDVDG ): ≤ 2 s⁻¹

More entries:
Data point: SEQ ID NO 29 (receptor) MHLPKPTLWAEPGSVITLQSPVTLRCQGGQETQQYRLYREKKTAPWITRIPQELVKKGQFPIPSITWEHAGRYRCYYGSDTRQWSASSDPLELVVTGVYIKPTLSAQPSPVVNSGGNVTLQCDSQVAFDGFILCKEGEDDHPQCLNSQPHARGSSRAIFSVGPVSPSRRWRYRCYAYMSWSPYEWSLPSDLLELDVDG ; koff = ≤ 2 s⁻¹

Entry SEQ ID NO 28 (receptor) MHLPKPTLWAEPGSVITLQSPVTLRCQGGQETQQYRLYREKKTAPWITRIPQELVKKGQFPIPSITWEHAGRYRCYYGSDTRQWSASSDPLELVVTGVYIKPTLSAQPSPVVNSGGNVTLQCDSQVAFDGFILCKEGEDDHPQCLNSQPHARGSSRAIFSVGPVSPSRRWRYRCYAYMSWAPYEWSLPSDLLELDVDG — recorded koff = ≤ 2 s⁻¹
